The reported numbers originate from ChEMBL document CHEMBL5034005.

# assay info: Metabolic stability in Sprague-Dawley rat liver microsome preincubated for 10 mins by HPLC-MS/MS analysis
# Type: ADME
# conditions: liver microsomes, read-out: Stability

>  <smiles str>
Cc1nc(NCc2c(F)cccc2F)c2c(-c3ccnc(N)c3)c[nH]c2n1

>  <CLint scaled>
74 mL/min/kg

$$$$
>  <smiles str>
Cc1nc(NCc2c(F)cccc2F)c2c(-c3ccnc(N)n3)c[nH]c2n1

>  <CLint scaled>
53 mL/min/kg

$$$$
>  <smiles str>
Cc1nc(NCc2ncccc2F)c2c(-c3ccnc(N)c3)c[nH]c2n1

>  <CLint scaled>
53 mL/min/kg

$$$$
>  <smiles str>
Cc1nc(-c2ccc3c(c2)OCO3)c2c(-c3ccnc(N)c3)c[nH]c2n1

>  <CLint scaled>
50 mL/min/kg

$$$$
